- System: PC-3 prostate
- Procedure text: NCI tumour cell line growth inhibition, 48 h
GI50 by entry:

For the molecule O=CC(OC(=O)c1ccccc1)C(OC(=O)c1ccccc1)C(COC(c1ccccc1)(c1ccccc1)c1ccccc1)OC(=O)c1ccccc1 (centres undefined) , give its reported GI50.
9.64 µM

Please give the documented GI50 of CC/C=C\C[C@H]1C/C=C2/C(=O)C=C[C@H]2C/C=C\CCCC(=O)O1
3.13 µM

Specify reported GI50 for the molecule shown: Cc1nnc(C[C@@H]2C=C(c3ccc(Cl)cc3)c3ccccc3-n3c(C)nnc32)o1
3.53 µM

Quick one: give measured GI50 for Oc1ccc(NC(=S)Nc2ccccc2)cc1
> 100 µM

Answer with the recorded GI50 for the molecule listed here: Cc1cc2c(cc1Cl)SC(N(c1ccccc1Cl)S(=O)(=O)c1ccc(Br)s1)=NS2(=O)=O
12.5 µM

Quickly give me recorded GI50 for COc1ccccc1-n1cnc(N)c1C(=O)c1cc(OC)c(OC)c(OC)c1
3.51 µM

Please list GI50 recorded for the molecule O=C(NC1CCN(Cc2ccccc2)CC1)c1cc(-c2cccnc2)nc2ccc(Cl)cc12
6.16 µM

Specify measured GI50 for CCN(C(=O)N1CCN(c2cc3c(cc2F)c(=O)c(C(=O)O)cn3C2CC2)CC1)c1nc(-c2ccccc2)cs1 .
2.74 µM

Give a short answer stating reported GI50 for Cc1cc(F)c(C(=O)Nc2cccc(-c3nncn3C(C)C)n2)cc1-n1cnc(C2CC2)c1 .
16.6 µM

----------
- System: PC-3 prostate
- Procedure text: NCI tumour cell line growth inhibition, 48 h
The entries below come with measured TGI values attached.

Here is how some compounds turned out for TGI.
>  <Molecule smiles>
CCCCCC/C=C/C#CCCCCCCCC(=O)O

>  <TGI>
> 100 µM

$$$$
>  <Molecule smiles>
C1=N[C@]23C(=N[C@H](N=C2NCc2ccco2)[C@]24N=CNC2=N[C@H]3N=C4NCc2ccco2)N1

>  <TGI>
> 100 µM

$$$$

Assign TGI to the following record: CCN(C(=O)N1CCN(c2cc3c(cc2F)c(=O)c(C(=O)O)cn3C2CC2)CC1)c1nc(-c2ccccc2)cs1
> 100 µM

Using the record for O=C1/C(=C/c2cccnc2)SC(=S)N1Cc1ccco1 , state its measured TGI.
> 36.6 µM

Answer with reported TGI of O=C(O)c1cc(N=Nc2ccc([N+](=O)[O-])cc2)ccc1O
> 100 µM

For the compound CC(C)C[C@H](CC(=O)O)C(=O)N[C@@H](Cc1c[nH]c2ccccc12)C(=O)N[C@@H](C)c1ccccc1 , report TGI.
> 25 µM

----------
- System: OVCAR-5 ovarian
- Procedure text: NCI tumour cell line growth inhibition, 48 h
Measure: TGI

Examples from the recorded data:
>  <Compound>
Cc1cccc2c(N)c3cccc(C(=O)NCC[N+](C)(C)Cc4ccc([N+](=O)[O-])n4C)c3nc12

>  <Observed measurement>
> 70.8 µM

$$$$
>  <Compound>
COc1c(C)c(C/C=C(\C)CC/C=C(\C)CC/C=C(\C)CCC=C(C)C)c(OC)c(OC)c1OC

>  <Observed measurement>
> 100 µM

$$$$

Look up and state reported TGI for CCOC(=O)Oc1cc2ccsc2c2c1c1ccccc1n2C(=O)OCC
> 100 µM

Name the recorded TGI of the compound listed here: C=CCn1c(-c2cc(C(C)(C)C)c(O)c(C(C)(C)C)c2)cs/c1=N\C(P(=O)(O)O)P(=O)(O)O
> 100 µM

Look up and report measured TGI for this entry: Cn1c(N/N=C/c2ccccc2)nc(-c2ccc3c(c2)OCO3)c(C#N)c1=O
> 100 µM
